- assayed_target: T1, hOX40-EC-His (human, UniProt P43489 29-214)
- T1 construct: extracellular domain; bought protein; also called recombinant human OX40 antigen protein; human OX40 extracellular segment antigen; not shown: 6 His label
- T1 sequence (looked up): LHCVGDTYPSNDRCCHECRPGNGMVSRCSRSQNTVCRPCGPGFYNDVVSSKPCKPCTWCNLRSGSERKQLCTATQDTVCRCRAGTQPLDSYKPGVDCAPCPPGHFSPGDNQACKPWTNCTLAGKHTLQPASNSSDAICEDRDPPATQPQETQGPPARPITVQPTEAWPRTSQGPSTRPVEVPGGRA
- assay: ELISA, supernatant stoste, coated OX40 (CK60)
experimental_endpoint: 450 nm light absorption (OD450)
Report only the number, with the unit OD450 understood.

Entry 24A12-12 (antibody, V domains shown, hybridoma antibody, tested as culture supernatant) VH: QVQLQESGPGLVKPAGTLSLTCAVSGGSISSSNWWNWVRQPPGKGLEWIGEIYHSGSTNYNPSLKSRVTISVDTSKNQFSLKLTSVTAADTAVYYCARTGPTVTTDYWGQGTLVTVSS VL: EIVLTQSPGTLSLSPGERATLSCRASQSVSSSYLAWYQQKPGQAPRLLIYGASYRATGMPERFSGSGSGTDFTLTISRLEPEDFAIYYCQQYGRSPLTFGGGTKVEIKR ; 450 nm light absorption = 2.81

Reported 450 nm light absorption ( 55H6-6 (antibody, V domains shown, hybridoma antibody, tested as culture supernatant) VH: QVQLVQSGAEVKKPGASVKVSCKASGYTFTSYGISWVRQAPGQGLEWMGWISAYNGHTNYAQKLQGRVTMTTDTSTNTAYMELWSLRSDDTAVYYCTSDYGDYWGQGTLVTVSS VL: DVVVTQSPLSLPVTLGQPASISCRSSQSLVYSDGNTNLYWFQQRPGQSPRRLIYQVSNRDSGVPDRFSGSGSGTDFTLKISRVEAEDVGVYYCMQGTHWPPALTFGGGTEVEIKR ) = 2.43

Item: 24E10-4 (antibody, V domains shown, hybridoma antibody, tested as culture supernatant) VH: QVQMQESGPGLVKPSGTLSLTCAVSGGSISSSKWWSWVRQPPGKGLEWIGEIYHSGSTNYNPSLKSRVTISIDKSKNQFSLRLTSVTAADTAVYYCARGDVLLWFGGQGTLVTVSS VL: EIVLTQSPGTLSLSPGERATLSCWASQSVSSTYLAWYQQKPGQAPRLLIYGASIRATGIPDRFSGSGSGTDFTLTISSLEPEDFAVYYCQQYGSSPITFGQGTRLEIKR | 450 nm light absorption: 2.51

In plain terms, 29B8-3 (antibody, V domains shown, hybridoma antibody, tested as culture supernatant) VH: QVQLQESGPGLVKPSGTLSLTCAVSGVSISSSNWWSWVRQPPGKGLEWIGEIYHSGNTNYNPSLKSRVTISVDKSKNQFSLKLSSVTAADTAVYYCAETSTITTNYWGQGTLVTVSS VL: DIQMTQSPSSLSASVGDRVTITCRASQTISSYLNWYQQKPGKAPKLLIYAASSLQSGVPSRFSGSESGTDFTLTISSLQPEDFATYYCQQTYSIPITFGQGTRLEIKR has a documented 450 nm light absorption of 2.46

Consider 35B8-6 (antibody, V domains shown, hybridoma antibody, tested as culture supernatant) VH: QITLKESGPTLVKPTQTLTLTCTFSGFSLSTSAVNVGWIRQPHGKALEWLALIFWNDDKRYSPSLKNRLTITKDTSKDQVVLTMSNMDPVDTATYYCAQYNWNSSFDYWGQGTLVTVSS VL: DIQMTQSPSSLSASLGDRVTITCQASQDINTYLNWYQQKPGKAPKVLIYDASNLETGVPSRFSGSGSGTDFTFTISSLQPEDIATFYCQQYDNLITFGGGTKVEIKR . Its measured 450 nm light absorption is 1.47

// field: 450 nm light absorption; key: 4D9-12 (antibody, V domains shown, hybridoma antibody, tested as culture supernatant) VH: QVQLQESGPGLVKPSGTLSLTCAVSGGSISSSNWWSWVRQPPGKGLEWIGEIYHSGNTIYNPSLKSRVTISLDKSKNQFSLKLSSVTAADTAVYYCASSGSLYMDVWGKGTTVTVSS VL: DIQMTQSPSSLLSSVGDRVTISCRASHGSSTYLNWYQQKPGKAPRLLIYGASSLQSGVPSRFSGSGFGTDFILTISSMQPEDFATYYCQQSYSIPITFGQGTRLEIKR ; value = 2.39

Please fill in: 450 nm light absorption reported for 38D9-12 (antibody, V domains shown, hybridoma antibody, tested as culture supernatant) VH: QVQLQESGPGLVKPSGTLSLTCAVSGDSISSTNWWSWVRQPPGKGLEWIGEINHNGSTYYNPSLKSRVTISVDKSKNQFSLKLRSVTAADTAVYYCAREDYYYMDVWGKGTTVTVSS VL: DIQMTQSPSSLSASVGDRVTITCRTSQGIWNDLGWYQQKPGKAPKRLIYAASSLQSGVPSRFSGSESGTEFTLTISSLQPEDFATYYCLQYNNYPLTFGGGTKVEIKR = 2.24

// recorded 450 nm light absorption for 21F3-11 (antibody, V domains shown, hybridoma antibody, tested as culture supernatant) VH: QVQLQESGPGLVKPSGTLSLTCAVSGGSISSSNWWSWVRQPPGKGLEWIGEIYHGGSTNYNPSLKSRITISVDKSKNQFSLKLSSVTAADTAMYYCATLPGYSSGWFDSWGQGTLVTVSS VL: EIVLMQSPGTLSLSPGERATLSCRASQSVSSSYLAWYQQKPGQAPSLLIYGASNRASGIPDRFSGSGSGTDFTLTITRLEPEDFAVYYCQQYGSSPLTFGGGTRVEIKR : 2.58

For 15A7-6 (antibody, V domains shown, hybridoma antibody, tested as culture supernatant) VH: QVQLQESGPGLVKPSGTLSLTCAVSGGSINSSSWWSWVRQPPGKGLEWIGEIYHSGDTNYNPSLKSRVAISVDKSKNQFSLKLSSVTAADTAVYYCARDQADYFGSGNYVYWGQGTLVTVSS VL: EIVLMQYPGTLSLSSGERRVLSCRPSQSVSSSYLAWYQQKPGQAPRLLIYGASSRASGIPDRFSGSGSGTDFTLTISRLEPEDFAVYYCQQYGSLPITFGQGTRVEIKR the binder record lists 450 nm light absorption as 2.25

These data points were gathered from patent US20240209104A1.
